# measurement description: AUC in NCR mouse at 25 mg/kg, po administered as suspension
# Type: ADME, organism-based
# Set-up: dose 25 mg/kg, route oral
# assay context: plasma
property measured: AUC
Remember to put the unit after the number in your answer.

Problem: Provide only the value of recorded AUC for CN1CCN(c2ccc(-c3cnc4[nH]c5cnc(C#N)cc5c4c3)cc2)CC1
Solution: 9.37 µM·h

====

# measurement description: Half life in NCR mouse at 25 mg/kg, po administered as solution
# Assay type: ADME, organism-based
# Design: dose 25 mg/kg, route oral
# assay context: in vivo
property measured: half-life (h)
Report as a plain number; the unit h is understood.

Problem: Write down half-life measured for item CN1CCN(c2ccc(-c3cnc4[nH]c5cnc(C#N)cc5c4c3)cc2)CC1
Solution: 2.1

====

# measurement description: Half life in CD1 mouse at 5 mg/kg, po administered as suspension
# Format: ADME, organism-based
# Set-up: dose 5 mg/kg, route oral
# assay context: in vivo
property measured: half-life (h)
Your answer should be a plain number; it is taken to be in h.

Problem: Give half-life for CN1CCN(c2ccc(-c3cnc4[nH]c5cnc(C#N)cc5c4c3)cc2)CC1
Solution: 2.9

====

# measurement description: Cmax in CD1 mouse at 5 mg/kg, po administered as solution
# Type: ADME, organism-based
# Set-up: dose 5 mg/kg, route oral
# assay context: in vivo
property measured: Cmax (nM)
# number only, unit nM dropped from output

Problem: Identify measured Cmax corresponding to CN1CCN(c2ccc(-c3cnc4[nH]c5cnc(C#N)cc5c4c3)cc2)CC1
Solution: 450

====

# measurement description: Oral bioavailability in Sprague-Dawley rat at 5 mg/kg administered as solution
# Format: ADME, organism-based
# assay context: in vivo
property measured: bioavailability (%)
Answer with a number only, understood to be in %.

Problem: Report bioavailability for CN1CCN(c2ccc(-c3cnc4[nH]c5cnc(C#N)cc5c4c3)cc2)CC1
Solution: 62

====

# measurement description: Cmax in NCR mouse at 25 mg/kg, po administered as solution
# Type: ADME, organism-based
# Parameters: dose 25 mg/kg, route oral
# assay context: in vivo
property measured: Cmax (nM)
Give a bare numeral; the unit nM is implied.

Problem: Hello, please tell me recorded Cmax for this one: CN1CCN(c2ccc(-c3cnc4[nH]c5cnc(C#N)cc5c4c3)cc2)CC1
Solution: 2510

====

# measurement description: Cmax in CD1 mouse at 5 mg/kg, po administered as suspension
# Format: ADME, organism-based
# Design: dose 5 mg/kg, route oral
# assay context: in vivo
property measured: Cmax (nM)
Answer in nM, number only, no unit symbol.

Problem: Query Cmax for CN1CCN(c2ccc(-c3cnc4[nH]c5cnc(C#N)cc5c4c3)cc2)CC1
Solution: 200

====

# measurement description: Clearance in Sprague-Dawley rat at 1 mg/kg, iv
# Assay type: ADME, organism-based
# Design: dose 1 mg/kg, route intravenous
# assay context: in vivo
property measured: clearance
Just the number plus its unit, please.

Problem: Fill in clearance for record CN1CCN(c2ccc(-c3cnc4[nH]c5cnc(C#N)cc5c4c3)cc2)CC1
Solution: 27 mL/min/kg

====

# measurement description: Half life in Sprague-Dawley rat at 5 mg/kg, po administered as solution
# Format: ADME, organism-based
# Design: dose 5 mg/kg, route oral
# assay context: in vivo
property measured: half-life (h)
Write it as a number; the unit h goes unstated.

Problem: Give the value of half-life reported for the following: CN1CCN(c2ccc(-c3cnc4[nH]c5cnc(C#N)cc5c4c3)cc2)CC1
Solution: 2.3

====

# measurement description: AUC in Sprague-Dawley rat at 5 mg/kg, po administered as solution
# Format: ADME, organism-based
# Parameters: dose 5 mg/kg, route oral
# assay context: plasma
property measured: AUC
Quote the value and follow it with the unit of measurement.

Problem: Return AUC for the following compound: CN1CCN(c2ccc(-c3cnc4[nH]c5cnc(C#N)cc5c4c3)cc2)CC1
Solution: 5.64 µM·h

====

# measurement description: Half life in CD1 mouse at 5 mg/kg, po administered as solution
# Format: ADME, organism-based
# Design: dose 5 mg/kg, route oral
# assay context: in vivo
property measured: half-life (h)
Quick reminder: number only, in h, skip the unit.

Problem: Note half-life for the compound shown: CN1CCN(c2ccc(-c3cnc4[nH]c5cnc(C#N)cc5c4c3)cc2)CC1
Solution: 1.6

====

# measurement description: Half life in CD1 mouse at 0.5 mg/kg, iv
# Format: ADME, organism-based
# Set-up: dose 0.5 mg/kg, route intravenous
# assay context: in vivo
property measured: half-life (h)
Express it in h; write the number only.

Problem: Complete the entry with half-life for CN1CCN(c2ccc(-c3cnc4[nH]c5cnc(C#N)cc5c4c3)cc2)CC1
Solution: 5.8

====

# measurement description: AUC in CD1 mouse at 0.5 mg/kg, iv
# Format: ADME, organism-based
# Design: dose 0.5 mg/kg, route intravenous
# assay context: plasma
property measured: AUC (µM·h)
Entry rule: numbers only, all in µM·h.

Problem: Name the recorded AUC of the molecule listed here: CN1CCN(c2ccc(-c3cnc4[nH]c5cnc(C#N)cc5c4c3)cc2)CC1
Solution: 0.34

====

# measurement description: AUC in CD1 mouse at 5 mg/kg, po administered as solution
# Type: ADME, organism-based
# Set-up: dose 5 mg/kg, route oral
# assay context: plasma
property measured: AUC (µM·h)
Record the value in µM·h, omitting the unit from your answer.

Problem: Specify AUC for CN1CCN(c2ccc(-c3cnc4[nH]c5cnc(C#N)cc5c4c3)cc2)CC1 and stop.
Solution: 1.85

====

# measurement description: Half life in Sprague-Dawley rat at 1 mg/kg, iv
# Type: ADME, organism-based
# Set-up: dose 1 mg/kg, route intravenous
# assay context: in vivo
property measured: half-life (h)
Numeric answer only, unit h assumed.

Problem: Supply recorded half-life for CN1CCN(c2ccc(-c3cnc4[nH]c5cnc(C#N)cc5c4c3)cc2)CC1 here.
Solution: 1.8

====

# measurement description: Oral bioavailability in CD1 mouse at 5 mg/kg administered as solution
# Assay type: ADME, organism-based
# assay context: in vivo
property measured: bioavailability
# do not omit the unit; it follows the number

Problem: Please supply the value of reported bioavailability for the item CN1CCN(c2ccc(-c3cnc4[nH]c5cnc(C#N)cc5c4c3)cc2)CC1
Solution: 54%
